Settings: in n-butanol, 288.15 K
ASSAY ENDPOINT: solubility (mole fraction)
Answer as a number with no unit attached.

Q: Fill blank: measured solubility (mole fraction) of the compound COC(=O)N(OC)c1ccccc1COc1ccn(-c2ccc(Cl)cc2)n1 is ____.
A: 0.00663

---

Conditions: in isobutanol, 308.15 K
ASSAY ENDPOINT: solubility (mole fraction)
Answer as a number with no unit attached.

Q: Fill blank: measured solubility (mole fraction) of the compound COC(=O)N(OC)c1ccccc1COc1ccn(-c2ccc(Cl)cc2)n1 is ____.
A: 0.0186

---

Details: in isopropanol, 283.15 K
ASSAY ENDPOINT: solubility (mole fraction)
Answer as a number with no unit attached.

Q: Fill blank: measured solubility (mole fraction) of the compound COC(=O)N(OC)c1ccccc1COc1ccn(-c2ccc(Cl)cc2)n1 is ____.
A: 0.00248
